Tested on: MCF7 breast
Assay: NCI-60 one-dose screen, 48 h (100 = growth as untreated, 0 = no growth, -100 = all killed)
Conditions: 10 µM unless noted
The panel holds about 83,000 compounds, 20% with a hit somewhere; the sample as a whole holds those more often.
assay_endpoint: growth (%)
Answers are plain numbers, in %.

CCCC(=O)CC(=O)c1ccccc1 = 97.2
COc1cccc(C(=O)NNC(=O)c2cccc3ccccc23)c1 = 109
NCC(O)C(O)C(O)C(O)CO (stereo not drawn) = 97.1
CC(=O)N=c1ccc2nc3c(cc(N)c4ccccc43)oc-2c1 = -74.9
CCCCN(C=S)CCCC = 87.6

Required: growth, one value per compound below.
1. CN(C(=S)S(=O)(=O)C12CC3CC(CC(C3)C1)C2)c1ccccc1
2. Nc1ccc(F)c(Cl)c1F

Data returned:
1. 99.4
2. 102

Required: growth, one value per compound below.
1. COc1cc(C(=O)O)c(O)c(C(C)(C)C)c1
2. O=S(=O)(O)C(C(I)I)S(=O)(=O)O
3. O=C(Nc1cccc(Cl)c1)c1ccc(Cl)cc1Cl

Data returned:
[97.4, 98.9, 83.3]

Required: growth, one value per compound below.
1. COc1cc(C(=O)NC(=S)NCc2ccncc2)cc(OC)c1OC
2. CC(C)(C)CC1(C)NC(=O)NC1=O (stereo not drawn)
3. CCOC(=O)c1ccc(NC(C)=O)o1
4. NC(CCl)=NCC12CC3CC(CC(C3)C1)C2
5. C[n+]1c(/C=C\C=C\N2CCCCC2)sc2ccccc21
6. COC1OC(C(COC(C)=O)OC(C)=O)C(OC(C)=O)C(OC(C)=O)C1OC(C)=O (stereo not drawn)
7. CSc1nc2[nH]ncc2c(=O)[nH]1

Data returned:
1. 98.3
2. 100
3. 96.9
4. -29.1
5. 4.75
6. 96
7. 98.1

Where these numbers come from: PubChem BioAssay (NCI)
